System: HeLa-UGT1A9 cells
Type: in vitro ADME, human
Conditions: loading aglycone concentration 5 μM, end of experiment
Each item that follows carries a reported Intracellular Con. of HFs-G or DHFs-3-O-G.
The reply should contain only the number, in µM.

### Prompt Find the recorded Intracellular Con. of HFs-G or DHFs-3-O-G belonging to O=C(O)[C@H]1O[C@@H](Oc2c(-c3ccccc3)oc3ccccc3c2=O)[C@H](O)[C@@H](O)[C@@H]1O [3HF-G] and report it.
### Response 206.98

### Prompt Find the recorded Intracellular Con. of HFs-G or DHFs-3-O-G belonging to O=C(O)[C@H]1O[C@@H](Oc2cccc3oc(-c4ccccc4)cc(=O)c23)[C@H](O)[C@@H](O)[C@@H]1O [5HF-G] and report it.
### Response 72.86

### Prompt Find the recorded Intracellular Con. of HFs-G or DHFs-3-O-G belonging to O=C(O)[C@H]1O[C@@H](Oc2c(-c3ccccc3)oc3cccc(O)c3c2=O)[C@H](O)[C@@H](O)[C@@H]1O [3,5DHF-3-O-G] and report it.
### Response 242.98

### Prompt Find the recorded Intracellular Con. of HFs-G or DHFs-3-O-G belonging to O=C(O)[C@H]1O[C@@H](Oc2c(-c3ccc(O)cc3)oc3ccccc3c2=O)[C@H](O)[C@@H](O)[C@@H]1O [3,4′DHF-3-O-G] and report it.
### Response 645.32

* * *

Test system: HeLa-UGT1A9 cells
Type: in vitro ADME, human
Settings: loading aglycone concentration 1.25 μM, end of experiment
Each item that follows carries a reported Intracellular Con. of HFs-G or DHFs-3-O-G.

### Prompt Find the recorded Intracellular Con. of HFs-G or DHFs-3-O-G belonging to O=C(O)[C@H]1O[C@@H](Oc2c(-c3ccc(O)cc3)oc3ccccc3c2=O)[C@H](O)[C@@H](O)[C@@H]1O [3,4′DHF-3-O-G] and report it.
### Response 71.15 ± 6.11 µM

### Prompt Find the recorded Intracellular Con. of HFs-G or DHFs-3-O-G belonging to O=C(O)[C@H]1O[C@@H](Oc2c(-c3ccccc3)oc3cccc(O)c3c2=O)[C@H](O)[C@@H](O)[C@@H]1O [3,5DHF-3-O-G] and report it.
### Response 14.70 ± 2.60 µM

### Prompt Find the recorded Intracellular Con. of HFs-G or DHFs-3-O-G belonging to O=C(O)[C@H]1O[C@@H](Oc2cccc3oc(-c4ccccc4)cc(=O)c23)[C@H](O)[C@@H](O)[C@@H]1O [5HF-G] and report it.
### Response 31.03 ± 0.44 µM

### Prompt Find the recorded Intracellular Con. of HFs-G or DHFs-3-O-G belonging to O=C(O)[C@H]1O[C@@H](Oc2c(-c3ccccc3)oc3ccccc3c2=O)[C@H](O)[C@@H](O)[C@@H]1O [3HF-G] and report it.
### Response 7.14 ± 3.02 µM

* * *

Test system: HeLa-UGT1A9 cells
Assay type: in vitro ADME, human
Settings: loading aglycone concentration 2.5 μM, end of experiment
result_type: Intracellular Con. of HFs-G or DHFs-3-O-G
A bare number is not enough; add the unit after it.

Example entries begin here.
O=C(O)[C@H]1O[C@@H](Oc2c(-c3ccc(O)cc3)oc3ccccc3c2=O)[C@H](O)[C@@H](O)[C@@H]1O | 241.60 ± 26.10 µM
O=C(O)[C@H]1O[C@@H](Oc2cccc3oc(-c4ccccc4)cc(=O)c23)[C@H](O)[C@@H](O)[C@@H]1O | 47.98 ± 3.91 µM
O=C(O)[C@H]1O[C@@H](Oc2c(-c3ccccc3)oc3cccc(O)c3c2=O)[C@H](O)[C@@H](O)[C@@H]1O | 53.48 ± 3.45 µM

### Prompt Find the recorded Intracellular Con. of HFs-G or DHFs-3-O-G belonging to O=C(O)[C@H]1O[C@@H](Oc2c(-c3ccccc3)oc3ccccc3c2=O)[C@H](O)[C@@H](O)[C@@H]1O and report it.
### Response 38.56 ± 8.36 µM
